tested on: E. coli; assay: AST by flow cytometry type counting of individual bacteria (Aquila 400), MIC from differential growth; assay type: cell-based; settings: Escherichia coli, 24 h, Aquila 400 counting; cut-off 15%; 24 hours; read-out: MIC, 24 hours
We begin with a simple list: items and their reported MIC.
Give the value, in units of µg/mL, as a plain number.

INSERT INTO measurements (compound_string, unit, reported_measurement) VALUES
  ('CO/N=C(\C(=O)N[C@@H]1C(=O)N2C(C(=O)O)=C(COC(C)=O)CS[C@H]12)c1csc(N)n1', 'µg/mL', 0.06),
  ('C[C@@H](O)[C@H]1C(=O)N2C(C(=O)O)=C(S[C@@H]3CN[C@H](C(=O)N(C)C)C3)[C@H](C)[C@H]12', 'µg/mL', 0.25),
  ('CC(C)(O/N=C(\C(=O)N[C@@H]1C(=O)N2C(C(=O)[O-])=C(C[n+]3ccccc3)CS[C@H]12)c1csc(N)n1)C(=O)O', 'µg/mL', 0.25);

// below: MIC requested for another molecule
Inquiry: Which measured MIC value corresponds to "O=C(O)c1cn(C2CC2)c2cc(N3CCNCC3)c(F)cc2c1=O" ?
Reply text: 0.008

----------
This section presents compounds with their documented MIC values.
system: E. coli; experiment: AST by flow cytometry type counting of individual bacteria (Aquila 400), MIC from differential growth; type: cell-based; details: Escherichia coli, 24 h, Aquila 400 counting; cut-off 5%; 24 hours; read-out: MIC, 24 hours
Answer format: numeric, µg/mL implied, no suffix.

Worked examples follow.
INSERT INTO measurements (compound, reported_measurement) VALUES
  ('CO/N=C(\C(=O)N[C@@H]1C(=O)N2C(C(=O)O)=C(COC(C)=O)CS[C@H]12)c1csc(N)n1 [Cefotaxime]', 0.125),
  ('O=C(O)c1cn(C2CC2)c2cc(N3CCNCC3)c(F)cc2c1=O [Ciprofloxacin]', 0.008),
  ('C[C@@H](O)[C@H]1C(=O)N2C(C(=O)O)=C(S[C@@H]3CN[C@H](C(=O)N(C)C)C3)[C@H](C)[C@H]12 [Meropenem]', 0.5);

Inquiry: Suppose we examine the compound CC(C)(O/N=C(\C(=O)N[C@@H]1C(=O)N2C(C(=O)[O-])=C(C[n+]3ccccc3)CS[C@H]12)c1csc(N)n1)C(=O)O [Ceftazidime] ; what MIC value has been reported?
Reply text: 0.25

----------
test system: E. coli; test: AST by flow cytometry type counting of individual bacteria (Aquila 400), MIC from differential growth; assay type: cell-based; settings: Escherichia coli, 24 h, Aquila 400 counting; cut-off 10%; 24 hours; read-out: MIC, 24 hours
Reported values of MIC for individual entries
Reply numerically in µg/mL, unit not repeated.

Inquiry: For the molecule shown here, CO/N=C(\C(=O)N[C@@H]1C(=O)N2C(C(=O)O)=C(COC(C)=O)CS[C@H]12)c1csc(N)n1 [Cefotaxime] , give the reported MIC.
Reply text: 0.125

Inquiry: Value lookup for MIC; key = O=C(O)c1cn(C2CC2)c2cc(N3CCNCC3)c(F)cc2c1=O [Ciprofloxacin]
Reply text: 0.008

Inquiry: # query: MIC of entry C[C@@H](O)[C@H]1C(=O)N2C(C(=O)O)=C(S[C@@H]3CN[C@H](C(=O)N(C)C)C3)[C@H](C)[C@H]12 [Meropenem]
Reply text: 0.5

Inquiry: Need MIC of CC(C)(O/N=C(\C(=O)N[C@@H]1C(=O)N2C(C(=O)[O-])=C(C[n+]3ccccc3)CS[C@H]12)c1csc(N)n1)C(=O)O [Ceftazidime] , thanks.
Reply text: 0.25

Data provenance: patent US12655465B2
